test system: CP215; test: qHTS profiling for inhibitors of Plasmodium falciparum proliferation (AID 504749); also: nearly all actives have a fitted effect of over 60% in size; details: P. falciparum in erythrocytes, SYBR Green DNA, 72 h; series mostly up to 28.7 µM
Inconclusive results are not listed. Activity calls are given as the source filed them. Calls follow the shape of the dose curve; as a rule, active = well fitted inhibition curve with a large enough effect; inconclusive = small, poorly fitted or top-dose-only effect; inactive = flat fitted curve, though single readings scatter.
Your answer must be one of the following: active, inactive

CC(=O)Oc1ccc(C(=C2CCCCC2)c2ccc(OC(C)=O)cc2)cc1 | inactive
Cc1c(C(N)=O)cc([N+](=O)[O-])cc1[N+](=O)[O-] | inactive
Nc1ccc(/C=C/c2ccc(N)cc2S(=O)(=O)O)c(S(=O)(=O)O)c1 | inactive
C1CCc2nnnn2CC1 | inactive
O=C1OC(c2ccc(O)cc2)(c2ccc(O)cc2)c2ccccc21 | inactive
CCCn1c(=O)[nH]c(=O)c2[nH]cnc21 | inactive

In this assay, the call recorded for CN1C2CCC1CC(OC(=O)c1c[nH]c3ccccc13)C2 (configuration not stated) was what?
inactive

Let us now turn to "CC(C)(CO)[C@@H](O)C(=O)NCCCO"
inactive

Let us now turn to "CCn1cc(C(=O)O)c(=O)c2cnc(N3CCCC3)nc21"
inactive

Let us now turn to CCN(CC)CCOc1ccc(C(O)(Cc2ccc(Cl)cc2)c2ccc(C)cc2)cc1 (configuration not stated)
active

Let us now turn to "CC(O)(P(=O)(O)O)P(=O)(O)O"
inactive

Let us now turn to "CCC(=O)c1c(O)cc(O)cc1O"
inactive
